- Test system: UO-31 renal
- method: NCI-60 one-dose screen, 48 h
- appliedConditions: 10 µM unless noted
About 83,000 compounds went through this panel and 20% of them were active in at least one assay; those are over-represented in the sample as a whole. Active and inactive are the calls of the source. How the source made its calls: active means growth percent below 10; inactive means the rest.
Your answer must be one of the following: T (active), F (inactive)

Study these solved cases before continuing.
CCc1ccccc1-n1c(N)c(C#N)c(-c2ccc(N(C)C)cc2)c(C#N)c1=O: F
CC/C=C\C/C=C\C[C@H](O)C/C=C1/C(=O)C=C[C@@H]1C/C=C\CCCC(=O)O: F
COc1nc(N(C)O)nc(N(C)O)n1: F

What is the recorded call for this compound in the test? `Cc1cc(Cl)ccc1Nc1nc(C(F)(F)F)ccc1C(=O)N/N=C/c1ccc(N(C)C)cc1`
F

What is the recorded call for this compound in the test? `O=Cc1ccc(O)c2ncccc12`
F

###

- Tested on: SNB-19 CNS
- method: NCI-60 one-dose screen, 48 h (100 = growth as untreated, 0 = no growth, -100 = all killed)
- appliedConditions: 10 µM unless noted
This is part of a sample that, as a whole, favours compounds with a hit. Of some 83,000 tested, about 20% had one in any assay.
# if value of growth reaches 60%, tag rule met; if it stays below, tag rule not met

Study these solved cases before continuing.
N=C1CCC(=N)c2c1c(O)c1ccccc1c2O: rule met
COc1cc(C(=O)c2cc(C)c3[nH]c4ccc(Cl)cc4c3c2C)cc(OC)c1OC: rule not met
Cc1cccc(NC(=O)CSc2nc3ccccc3[nH]2)c1: rule met
NS(=O)(=O)c1ccc(-n2nc(C(=O)N/N=C\c3ccc(F)cc3)cc2-c2ccc(Cl)cc2)cc1: rule met

Check the entry N#CC1=C(NC=O)Oc2c(ccc3ccccc23)C1c1ccccc1 (stereo not given) : does growth equal or exceed 60%?
rule not met

Check the entry `CN(C)CCC=C1c2ccccc2C(C)(C)c2ccccc21` : does growth equal or exceed 60%?
rule met

Check the entry O=C1CC(N2C(=O)/C(=C/C(Cl)=C\c3ccc([N+](=O)[O-])cc3)SC2=S)C(=O)N1c1ccc(O)cc1 (stereo not given) : does growth equal or exceed 60%?
rule not met

Check the entry CC1CC2Oc3ccc(Cl)cc3C(=O)N2O1 (stereo not given) : does growth equal or exceed 60%?
rule met

Check the entry `COc1cccc(C(=O)NCCCNc2cc(-c3cn(-c4ccccc4)nc3-c3cccc(OC)c3)ccn2)c1` : does growth equal or exceed 60%?
rule met

Check the entry `Cc1ccc(Cl)c(NS(=O)(=O)c2ccc(-c3cnc(C4CC4)o3)cc2)c1` : does growth equal or exceed 60%?
rule not met

###

I'd be grateful if you could share measured growth for these entries.
- Tested on: NCI-H460 lung
- method: NCI-60 one-dose screen, 48 h (100 = growth as untreated, 0 = no growth, -100 = all killed)
- appliedConditions: 10 µM unless noted
Compounds without any hit were thinned out: in the full panel of roughly 83,000, 20% have a hit.
Numbers only, in %.

// known answers, use as guide
Cc1cc(NCc2cc(Nc3ccnc4cc(Cl)ccc34)ccc2F)nc(N2CCN(c3ccccc3)CC2)n1: 44.9
C=C1C(=O)O[C@H]2[C@H]1CC/C(COC(=O)C(=O)c1cn(C)c3ccc(OC)cc13)=C\CC[C@@]1(C)O[C@@H]21: -76.3
COc1cc(/C=N/n2c(CN3CCOCC3)nc3ccccc3c2=O)cc(OC)c1OC: 109
COc1ccc(-c2nc(SCC(=O)Nc3nc(-c4ccccc4)cs3)[nH]c(=O)c2C#N)cc1: 114
Cc1ccc2nc(NC(=O)CSc3nc(Nc4ccc([N+](=O)[O-])cc4)c(C#N)c(-c4ccccc4)n3)sc2c1: 98.7
O=C(/C=C/c1c(Cl)nc2sccn12)c1ccc(F)c(F)c1: 79.5
CC(=O)n1c(-c2ccc(Cl)cc2)nc2c(c1=O)C(c1ccc(Cl)cc1)c1sc3c(Cl)cccc3c1O2 (stereo unspecified): -30.4
O=[N+]([O-])c1ccc(Sc2cccc[n+]2[O-])c2nonc12: 56.8
NC1=NCc2nc3ccccc3c(=O)n2C1: 111
O=C(c1ccccc1)N1N=C(c2ccccc2)CC1c1nnc2n(Cc3ccccc3)c(=O)c3c4c(sc3n12)CCCC4 (stereo unspecified): 107

Hey, quick one: what's growth for each of these?
1. CCCCCCCCCCCCCCCCCCOc1ccc(CC(=O)OCC[N+]2(C)CCCC2)cc1
2. CCN(CC)c1nc(SCC(=O)Nc2nc3ccc(C)cc3s2)nc(-c2ccccc2)c1C#N
3. COC(=O)[C@]12CC[C@@H](C)[C@H](C)[C@@H]1C1=CC[C@@H]3[C@@]4(C)C(C=O)=C[C@@](C)(CO)[C@@H]4[C@H](O)C[C@@]3(C)[C@]1(C)CC2
4. CCc1c2c(nc3ccc(OC(=O)OCc4ccc(B5OC(C)(C)C(C)(C)O5)cc4)cc13)-c1cc3c(c(=O)n1C2)COC(=O)[C@]3(O)CC
5. N=c1sc(Cc2ccc(Cl)cc2)cn1CC(=O)c1ccc(F)cc1
6. Cc1cc(C)c(-c2c(C)cc(C)cc2CBr)c(CBr)c1
7. NC(=O)c1ccc[n+]([C@@H]2O[C@H](COP(=O)([O-])OP(=O)(O)OC[C@H]3O[C@@H](n4cnc5c(N)ncnc54)[C@H](O)[C@@H]3O)[C@@H](O)[C@H]2O)c1
8. O=C1/C(=C\c2c[nH]c3ccccc23)c2ccccc2N1c1c(Cl)cccc1Cl

1: 99.7; 2: 99.4; 3: -35; 4: -6.28; 5: 33.7; 6: 77.2; 7: 104; 8: -89.5

Hey, quick one: what's growth for each of these?
1. CCN1C(=O)N(CC)C2Nn3c(s/c(=C\c4ccc(Cl)cc4Cl)c3=O)=NC21 (stereo unspecified)
2. COc1ccc2[nH]c(O)c(C(=Nc3ccc(N(C)C(=O)CN4CCN(C)CC4)cc3)c3ccccc3)c2c1
3. N#Cc1c(N)nc(NCCO)nc1-c1ccc(F)cc1
4. c1csc(-c2c3ccc(=[N+]4CCCCC4)cc-3oc3cc(N4CCCCC4)ccc23)c1
5. O=C(N/N=C/C=C/c1ccc([N+](=O)[O-])o1)c1cc2ccccc2cc1O
6. Cc1occc1-c1n[nH]c(=S)n1N1C(=O)CSC1=S

[16.4, 15.3, 103, -57.3, -14.3, 104]

Hey, quick one: what's growth for each of these?
1. N/C(=N/N=C/c1ccccc1)N/N=C\c1ccccc1
2. Cc1c(Cl)cc(-n2c(=O)c3ccccc3c3ccccc3c2=O)cc1Cl

[39.8, 111]
